ASSAY TARGET: Na(+)/H(+) exchange regulatory cofactor NHE-RF2 (Homo sapiens)
METHOD NOTES: Binding affinity to NHERF2 PDZ2 domain (unknown origin) expressed in Escherichia coli BL21 incubated for 1 hr by fluorescence polarization based competition assay
VALUE TYPE: pKd
Numbers only, as −log10 of the molar value.

These solved cases illustrate the format of a correct answer.
INSERT INTO assay_data (smi, endpoint_result) VALUES
  ('C[C@@H](O)[C@H](NC(=O)[C@@H](NC(=O)[C@@H](NC(=O)[C@H](Cc1csc2ccccc12)NC(=O)[C@H](Cc1ccc2ccccc2c1)NC(=O)[C@H](CCCNC(=N)N)NC(=O)[C@H](CCCNC(=N)N)NC(=O)[C@@H](CCCNC(=N)N)NC(=O)[C@H](CS)NC(=O)COCCOCCNC(=O)c1ccc2c(c1)C(=O)OC21c2ccc(O)cc2Oc2cc(O)ccc21)C(C)(C)S)C(C)(C)C)C(=O)N[C@@H](CCCNC(=N)N)C(=O)N[C@H](C(=O)O)C(C)(C)C', 5.55),
  ('C[C@@H](O)[C@H](NC(=O)[C@@H](NC(=O)[C@H](CCC(N)=O)NC(=O)[C@H](Cc1c[nH]c2ccccc12)NC(=O)[C@H](Cc1ccc2ccccc2c1)NC(=O)[C@H](CCCNC(=N)N)NC(=O)[C@H](CCCNC(=N)N)NC(=O)[C@@H](CCCNC(=N)N)NC(=O)[C@H](CS)NC(=O)CCNC(=S)Nc1ccc(-c2c3ccc(=O)cc-3oc3cc(O)ccc23)c(C(=O)O)c1)C(C)(C)S)C(=O)N[C@@H](CCCNC(=N)N)C(=O)N[C@H](C(=O)O)C(C)(C)C', 5.39),
  ('C[C@@H](O)[C@H](NC(=O)[C@@H](NC(=O)[C@@H]1CCCCN1C(=O)[C@H](Cc1csc2ccccc12)NC(=O)[C@H](Cc1ccc2ccccc2c1)NC(=O)[C@H](CCCNC(=N)N)NC(=O)[C@H](CCCNC(=N)N)NC(=O)[C@@H](CCCNC(=N)N)NC(=O)[C@H](CS)NC(=O)COCCOCCNC(=S)Nc1ccc2c(c1)C(=O)OC21c2ccc(O)cc2Oc2cc(O)ccc21)C(C)(C)S)C(=O)N[C@@H](CCCNC(=N)N)C(=O)N[C@H](C(=O)O)C(C)(C)C', 5.13);

Looking up C[C@@H](O)[C@H](NC(=O)[C@@H](NC(=O)[C@@H]1CCCN1C(=O)[C@H](Cc1csc2ccccc12)NC(=O)[C@H](Cc1ccc2ccccc2c1)NC(=O)[C@H](CCCNC(=N)N)NC(=O)[C@H](CCCNC(=N)N)NC(=O)[C@@H](CCCNC(=N)N)NC(=O)[C@H](CS)NC(=O)COCCOCCNC(=S)Nc1ccc2c(c1)C(=O)OC21c2ccc(O)cc2Oc2cc(O)ccc21)C(C)(C)S)C(=O)N[C@@H](CCCNC(=N)N)C(=O)N[C@H](C(=O)O)C(C)(C)C , I found its pKd recorded as 5.12

---

ASSAY TARGET: Golgi-associated PDZ and coiled-coil motif-containing protein (Homo sapiens)
METHOD NOTES: Binding affinity to C-terminal His6 tagged CAL PDZ domain (unknown origin) expressed in Escherichia coli BL21 incubated for 1 hr using FAM-22 probe by fluorescence polarization based competition assay
Non-standard residues stand in square brackets, D forms with d. Residues, ends and D or L forms follow the SMILES beside them. 1Nal = N[C@@H](Cc1cccc2ccccc12)C(=O)O; 2Nal = N[C@@H](Cc1ccc2ccccc2c1)C(=O)O; Bta = N[C@@H](Cc1csc2ccccc12)C(=O)O; Pen = CC(C)(S)[C@H](N)C(=O)O; Tle = CC(C)(C)[C@H](N)C(=O)O
VALUE TYPE: pIC50
Numbers only, as −log10 of the molar value.

Would you please look over these solved cases?
INSERT INTO results (compound, assay_target, endpoint_result) VALUES
  ('CC(=O)N[C@@H](CS)C(=O)N[C@@H](CCCNC(=N)N)C(=O)N[C@@H](CCCNC(=N)N)C(=O)N[C@@H](CCCNC(=N)N)C(=O)N[C@@H](Cc1cccc2ccccc12)C(=O)N[C@@H](Cc1c[nH]c2ccccc12)C(=O)N[C@@H](CCC(N)=O)C(=O)N[C@H](C(=O)N[C@H](C(=O)N[C@@H](CCCNC(=N)N)C(=O)N[C@H](C(=O)O)C(C)(C)C)[C@@H](C)O)C(C)(C)S (Ac-CRRR[1Nal]WQ[Pen]TR[Tle]-OH)', 'Golgi-associated PDZ and coiled-coil motif-containing protein (Homo sapiens)', 6.82),
  ('CC(=O)N[C@@H](CS)C(=O)N[C@H](CCCNC(=N)N)C(=O)N[C@@H](CCCNC(=N)N)C(=O)N[C@@H](CCCNC(=N)N)C(=O)N[C@@H](Cc1ccc2ccccc2c1)C(=O)N[C@@H](Cc1csc2ccccc12)C(=O)N[C@H](C(=O)N[C@H](C(=O)N[C@H](C(=O)N[C@@H](CCCNC(=N)N)C(=O)N[C@H](C(=O)O)C(C)(C)C)[C@@H](C)O)C(C)(C)C)C(C)(C)S (Ac-C[dR]RR[2Nal][Bta][Pen][Tle]TR[Tle]-OH)', 'Golgi-associated PDZ and coiled-coil motif-containing protein (Homo sapiens)', 6.62);

Now let's try a different one.
Input CC(=O)N[C@@H](CS)C(=O)N[C@@H](CCCNC(=N)N)C(=O)N[C@@H](CCCNC(=N)N)C(=O)N[C@@H](CCCNC(=N)N)C(=O)N[C@@H](Cc1ccccc1)C(=O)N[C@@H](Cc1cccc2ccccc12)C(=O)N[C@@H](CCC(N)=O)C(=O)N[C@@H](CS)C(=O)N[C@H](C(=O)N[C@@H](CCCNC(=N)N)C(=O)N[C@H](C(=O)O)C(C)(C)C)[C@@H](C)O (Ac-CRRRF[1Nal]QCTR[Tle]-OH) . Output pIC50: 5.74

---

ASSAY TARGET: Na(+)/H(+) exchange regulatory cofactor NHE-RF2 (Homo sapiens, UniProt Q15599)
Sequence (Q15599 whole entry, the tested form may be a part): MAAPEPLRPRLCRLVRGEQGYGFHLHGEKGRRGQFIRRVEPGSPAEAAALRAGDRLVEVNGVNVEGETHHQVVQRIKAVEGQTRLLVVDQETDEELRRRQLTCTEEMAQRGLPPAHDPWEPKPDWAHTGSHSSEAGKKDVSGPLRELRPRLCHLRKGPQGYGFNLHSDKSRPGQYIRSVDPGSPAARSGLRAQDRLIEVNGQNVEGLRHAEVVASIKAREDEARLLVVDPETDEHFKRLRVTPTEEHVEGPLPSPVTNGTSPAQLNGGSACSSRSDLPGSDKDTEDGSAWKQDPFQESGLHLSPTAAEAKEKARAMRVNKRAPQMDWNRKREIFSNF
METHOD NOTES: Binding affinity to NHERF2 PDZ1 domain (unknown origin) expressed in Escherichia coli BL21 incubated for 1 hr by fluorescence polarization based competition assay
For each entry below, report its pKd value.
Numbers only, as −log10 of the molar value.

Worked set:
INSERT INTO assay_data (smi, value_type, endpoint_result) VALUES
  ('C[C@@H](O)[C@H](NC(=O)[C@@H](NC(=O)[C@@H](NC(=O)[C@H](Cc1csc2ccccc12)NC(=O)[C@H](Cc1ccc2ccccc2c1)NC(=O)[C@H](CCCNC(=N)N)NC(=O)[C@H](CCCNC(=N)N)NC(=O)[C@@H](CCCNC(=N)N)NC(=O)[C@H](CS)NC(=O)COCCOCCNC(=O)c1ccc2c(c1)C(=O)OC21c2ccc(O)cc2Oc2cc(O)ccc21)C(C)(C)S)C(C)(C)C)C(=O)N[C@@H](CCCNC(=N)N)C(=O)N[C@H](C(=O)O)C(C)(C)C', 'pKd', 6.25),
  ('C[C@@H](O)[C@H](NC(=O)[C@@H](NC(=O)[C@H](CCC(N)=O)NC(=O)[C@H](Cc1c[nH]c2ccccc12)NC(=O)[C@H](Cc1ccc2ccccc2c1)NC(=O)[C@H](CCCNC(=N)N)NC(=O)[C@H](CCCNC(=N)N)NC(=O)[C@@H](CCCNC(=N)N)NC(=O)[C@H](CS)NC(=O)CCNC(=S)Nc1ccc(-c2c3ccc(=O)cc-3oc3cc(O)ccc23)c(C(=O)O)c1)C(C)(C)S)C(=O)N[C@@H](CCCNC(=N)N)C(=O)N[C@H](C(=O)O)C(C)(C)C', 'pKd', 5.73),
  ('C[C@@H](O)[C@H](NC(=O)[C@@H](NC(=O)[C@@H]1CCCCN1C(=O)[C@H](Cc1csc2ccccc12)NC(=O)[C@H](Cc1ccc2ccccc2c1)NC(=O)[C@H](CCCNC(=N)N)NC(=O)[C@H](CCCNC(=N)N)NC(=O)[C@@H](CCCNC(=N)N)NC(=O)[C@H](CS)NC(=O)COCCOCCNC(=S)Nc1ccc2c(c1)C(=O)OC21c2ccc(O)cc2Oc2cc(O)ccc21)C(C)(C)S)C(=O)N[C@@H](CCCNC(=N)N)C(=O)N[C@H](C(=O)O)C(C)(C)C', 'pKd', 5.86);

Please find the next compound below.
pKd in this record for C[C@@H](O)[C@H](NC(=O)[C@@H](NC(=O)[C@@H]1CCCN1C(=O)[C@H](Cc1csc2ccccc12)NC(=O)[C@H](Cc1ccc2ccccc2c1)NC(=O)[C@H](CCCNC(=N)N)NC(=O)[C@H](CCCNC(=N)N)NC(=O)[C@@H](CCCNC(=N)N)NC(=O)[C@H](CS)NC(=O)COCCOCCNC(=S)Nc1ccc2c(c1)C(=O)OC21c2ccc(O)cc2Oc2cc(O)ccc21)C(C)(C)S)C(=O)N[C@@H](CCCNC(=N)N)C(=O)N[C@H](C(=O)O)C(C)(C)C : 5.22

Just for reference, ChEMBL document CHEMBL4699666 is where these values come from.
